# assay procedure: an = ratio of the nth substance listed
# particulars: 313.15 K; 101 kPa; Liquid; Vibrating tube method; a2 = 3
Attribute: mass density
readout: mass density (kg/m3)

>>> df
                                   compound  endpoint_unit   result
0  CCC[N+](CCC)(CCC)Cc1ccccc1.[Cl-] [benzyltripropylammonium chloride] + Oc1ccccc1          kg/m3  1047.19
1  CCC[N+](CCC)(CCC)Cc1ccccc1.[Cl-] [benzyltripropylammonium chloride] + OCC(O)CO          kg/m3  1120.62
2  CCC[N+](CCC)(CCC)Cc1ccccc1.[Cl-] [benzyltripropylammonium chloride] + CC(O)C(=O)O          kg/m3  1106.36
3  CCC[N+](CCC)(CCC)Cc1ccccc1.[Cl-] [benzyltripropylammonium chloride] + OCCO          kg/m3  1051.35

====

# assay procedure: an = ratio of the nth substance listed
# particulars: 328.15 K; 101 kPa; Liquid; Falling or rolling sphere viscometry; a2 = 3
Let's look at some molecules and their measured viscosity.
readout: viscosity (mPa·s)

>>> df
                                   molecule    readout  result
0  CCC[N+](CCC)(CCC)Cc1ccccc1.[Cl-] [benzyltripropylammonium chloride] + Oc1ccccc1  viscosity    43.1
1  CCC[N+](CCC)(CCC)Cc1ccccc1.[Cl-] [benzyltripropylammonium chloride] + OCC(O)CO  viscosity   251.6
2  CCC[N+](CCC)(CCC)Cc1ccccc1.[Cl-] [benzyltripropylammonium chloride] + CC(O)C(=O)O  viscosity   215.6
3  CCC[N+](CCC)(CCC)Cc1ccccc1.[Cl-] [benzyltripropylammonium chloride] + OCCO  viscosity    42.1

====

# assay procedure: refractive index (Na D-line) (dimensionless); an = ratio of the nth substance listed
# particulars: 343.15 K; 101 kPa; Liquid; Standard Abbe refractometry; a2 = 3
readout: refractive index

In [3]: df
Out[3]:
                                   compound           readout  result
0  CCC[N+](CCC)(CCC)Cc1ccccc1.[Cl-] [benzyltripropylammonium chloride] + CC(O)C(=O)O  refractive index  1.4778
1  CCC[N+](CCC)(CCC)Cc1ccccc1.[Cl-] [benzyltripropylammonium chloride] + Oc1ccccc1  refractive index  1.5317
2  CCC[N+](CCC)(CCC)Cc1ccccc1.[Cl-] [benzyltripropylammonium chloride] + OCC(O)CO  refractive index  1.4908
3  CCC[N+](CCC)(CCC)Cc1ccccc1.[Cl-] [benzyltripropylammonium chloride] + OCCO  refractive index  1.4831

====

# assay procedure: an = ratio of the nth substance listed
# particulars: 308.15 K; 101 kPa; Liquid; Sing-around technique in a fixed-path interferometer; a2 = 3
readout: speed of sound (m/s)

>>> df
                                   compound  result
0  CCC[N+](CCC)(CCC)Cc1ccccc1.[Cl-] [benzyltripropylammonium chloride] + OCCO  1715.9
1  CCC[N+](CCC)(CCC)Cc1ccccc1.[Cl-] [benzyltripropylammonium chloride] + CC(O)C(=O)O  1607.9
2  CCC[N+](CCC)(CCC)Cc1ccccc1.[Cl-] [benzyltripropylammonium chloride] + Oc1ccccc1  1644.5
3  CCC[N+](CCC)(CCC)Cc1ccccc1.[Cl-] [benzyltripropylammonium chloride] + OCC(O)CO  1824.4

====

# assay procedure: an = ratio of the nth substance listed
# particulars: 338.15 K; 101 kPa; Liquid; Falling or rolling sphere viscometry; a2 = 3
readout: viscosity (mPa·s)

In [3]: df
Out[3]:
                                   molecule  result
0  CCC[N+](CCC)(CCC)Cc1ccccc1.[Cl-] [benzyltripropylammonium chloride] + CC(O)C(=O)O   108.5
1  CCC[N+](CCC)(CCC)Cc1ccccc1.[Cl-] [benzyltripropylammonium chloride] + Oc1ccccc1    25.8
2  CCC[N+](CCC)(CCC)Cc1ccccc1.[Cl-] [benzyltripropylammonium chloride] + OCC(O)CO   131.4
3  CCC[N+](CCC)(CCC)Cc1ccccc1.[Cl-] [benzyltripropylammonium chloride] + OCCO      27

====

# assay procedure: an = ratio of the nth substance listed
# particulars: 303.15 K; 101 kPa; Liquid; Sing-around technique in a fixed-path interferometer; a2 = 3
Catalogue of speed of sound values
readout: speed of sound (m/s)

>>> print(df.to_string())
                                   compound  result
0  CCC[N+](CCC)(CCC)Cc1ccccc1.[Cl-] [benzyltripropylammonium chloride] + OCC(O)CO  1844.9
1  CCC[N+](CCC)(CCC)Cc1ccccc1.[Cl-] [benzyltripropylammonium chloride] + CC(O)C(=O)O  1624.7
2  CCC[N+](CCC)(CCC)Cc1ccccc1.[Cl-] [benzyltripropylammonium chloride] + Oc1ccccc1  1661.7
3  CCC[N+](CCC)(CCC)Cc1ccccc1.[Cl-] [benzyltripropylammonium chloride] + OCCO    1731

====

refractive index reference
# assay procedure: refractive index (Na D-line) (dimensionless); an = ratio of the nth substance listed
# particulars: 323.15 K; 101 kPa; Liquid; Standard Abbe refractometry; a2 = 3
readout: refractive index

>>> print(df.to_string())
                                   compound  result
0  CCC[N+](CCC)(CCC)Cc1ccccc1.[Cl-] [benzyltripropylammonium chloride] + Oc1ccccc1  1.5386
1  CCC[N+](CCC)(CCC)Cc1ccccc1.[Cl-] [benzyltripropylammonium chloride] + CC(O)C(=O)O  1.4844
2  CCC[N+](CCC)(CCC)Cc1ccccc1.[Cl-] [benzyltripropylammonium chloride] + OCCO  1.4895
3  CCC[N+](CCC)(CCC)Cc1ccccc1.[Cl-] [benzyltripropylammonium chloride] + OCC(O)CO  1.4966

====

# assay procedure: an = ratio of the nth substance listed
# particulars: 338.15 K; 101 kPa; Liquid; Sing-around technique in a fixed-path interferometer; a2 = 3
± gives the expanded uncertainty stated by the source.
readout: speed of sound

In [3]: df
Out[3]:
                                   compound            result
0  CCC[N+](CCC)(CCC)Cc1ccccc1.[Cl-] [benzyltripropylammonium chloride] + OCCO  1629.2 ± 2.1 m/s
1  CCC[N+](CCC)(CCC)Cc1ccccc1.[Cl-] [benzyltripropylammonium chloride] + OCC(O)CO  1732.2 ± 1.9 m/s
2  CCC[N+](CCC)(CCC)Cc1ccccc1.[Cl-] [benzyltripropylammonium chloride] + Oc1ccccc1  1550.5 ± 2.1 m/s
3  CCC[N+](CCC)(CCC)Cc1ccccc1.[Cl-] [benzyltripropylammonium chloride] + CC(O)C(=O)O  1525.1 ± 6.5 m/s

====

# assay procedure: an = ratio of the nth substance listed
# particulars: 318.15 K; 101 kPa; Liquid; Falling or rolling sphere viscometry; a2 = 3
Numbers after ± are expanded uncertainties.
readout: viscosity

In [3]: df
Out[3]:
                                   compound            result
0  CCC[N+](CCC)(CCC)Cc1ccccc1.[Cl-] [benzyltripropylammonium chloride] + Oc1ccccc1  76.8 ± 1.4 mPa·s
1  CCC[N+](CCC)(CCC)Cc1ccccc1.[Cl-] [benzyltripropylammonium chloride] + CC(O)C(=O)O  489.2 ± 41 mPa·s
2  CCC[N+](CCC)(CCC)Cc1ccccc1.[Cl-] [benzyltripropylammonium chloride] + OCC(O)CO  519.3 ± 41 mPa·s
3  CCC[N+](CCC)(CCC)Cc1ccccc1.[Cl-] [benzyltripropylammonium chloride] + OCCO  70.6 ± 1.1 mPa·s

====

# assay procedure: an = ratio of the nth substance listed
# particulars: 293.15 K; 101 kPa; Liquid; Alternating current cell with electrodes; a2 = 3
readout: electrical conductivity

>>> print(df.to_string())
                                   compound      result
0  CCC[N+](CCC)(CCC)Cc1ccccc1.[Cl-] [benzyltripropylammonium chloride] + OCCO  0.0734 S/m
1  CCC[N+](CCC)(CCC)Cc1ccccc1.[Cl-] [benzyltripropylammonium chloride] + CC(O)C(=O)O  0.0011 S/m
2  CCC[N+](CCC)(CCC)Cc1ccccc1.[Cl-] [benzyltripropylammonium chloride] + OCC(O)CO  0.0058 S/m
3  CCC[N+](CCC)(CCC)Cc1ccccc1.[Cl-] [benzyltripropylammonium chloride] + Oc1ccccc1  0.0213 S/m

====

electrical conductivity values, listed per item
# assay procedure: an = ratio of the nth substance listed
# particulars: 343.15 K; 101 kPa; Liquid; Alternating current cell with electrodes; a2 = 3
readout: electrical conductivity (S/m)

>>> df
                                   molecule  result
0  CCC[N+](CCC)(CCC)Cc1ccccc1.[Cl-] [benzyltripropylammonium chloride] + CC(O)C(=O)O  0.0443
1  CCC[N+](CCC)(CCC)Cc1ccccc1.[Cl-] [benzyltripropylammonium chloride] + OCCO   0.328
2  CCC[N+](CCC)(CCC)Cc1ccccc1.[Cl-] [benzyltripropylammonium chloride] + Oc1ccccc1   0.183
3  CCC[N+](CCC)(CCC)Cc1ccccc1.[Cl-] [benzyltripropylammonium chloride] + OCC(O)CO  0.0894
